Each recorded value in this set is attributed to patent US20170291890A1.

Assayed Target: KDM4A (Homo sapiens, UniProt O75164)
Construct: N-terminal His-tagged KDM4A^1-350 was purchased from BPS Biosciences; His (N); purchased BPS Biosciences
Sequence (O75164 1-350): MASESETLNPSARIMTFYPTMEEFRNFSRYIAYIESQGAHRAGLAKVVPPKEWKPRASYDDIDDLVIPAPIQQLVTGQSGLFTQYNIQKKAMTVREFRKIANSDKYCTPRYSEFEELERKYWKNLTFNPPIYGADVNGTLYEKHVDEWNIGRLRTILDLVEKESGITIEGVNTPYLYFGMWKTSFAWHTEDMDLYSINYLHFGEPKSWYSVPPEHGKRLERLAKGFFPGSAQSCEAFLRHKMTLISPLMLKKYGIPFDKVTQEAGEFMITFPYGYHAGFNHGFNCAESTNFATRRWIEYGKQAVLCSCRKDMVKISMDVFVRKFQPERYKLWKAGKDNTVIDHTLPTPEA
Assay Protocol: KDM4A Assay (SAMDI mass spectrometry demethylase assay)
Type: biochemical
Assay Conditions: N-terminal His-tagged KDM4A 1-350; class symbols; read-out: 4A IC50
pIC50: −log10 of the molar value.
// pIC50 lookup, one value per entry
Recorded Endpoint: pIC50

chemical_structure=Cc1c(Nc2cnccc2C(=O)O)cnn1C1CCNCC1 assayed_target="KDM4A (Homo sapiens, UniProt O75164)" recorded_value="6.00 to 7.00"
chemical_structure=CNC(=O)c1ccc(-n2ncc(Nc3cnccc3C(=O)O)c2C)cc1 assayed_target="KDM4A (Homo sapiens, UniProt O75164)" recorded_value="7.00 to 9.00"
chemical_structure=O=C(O)c1ccncc1Nc1c(-c2ccccc2)cnn1CCN1CCC(F)(F)CC1 assayed_target="KDM4A (Homo sapiens, UniProt O75164)" recorded_value="4.00 to 5.00"
chemical_structure=O=C(O)c1ccncc1Nc1cc(-c2ccccc2)nn1[C@H]1CC[C@@H](O)CC1 assayed_target="KDM4A (Homo sapiens, UniProt O75164)" recorded_value="5.00 to 6.00"
chemical_structure=Cc1nn(C2CCN(C(C)C)CC2)cc1Nc1cnccc1C(=O)O assayed_target="KDM4A (Homo sapiens, UniProt O75164)" recorded_value="6.00 to 7.00"
chemical_structure=Cn1ncc(-c2ccc(F)cc2)c1Nc1cnccc1C(=O)O assayed_target="KDM4A (Homo sapiens, UniProt O75164)" recorded_value="5.00 to 6.00"
chemical_structure=Cc1c(Nc2cnccc2C(=O)O)nn(CCN2CCC(F)(F)CC2)c1-c1ccccc1 assayed_target="KDM4A (Homo sapiens, UniProt O75164)" recorded_value="7.00 to 9.00"
chemical_structure=Cc1c(Nc2cnccc2C(=O)O)cnn1C1CCN(C(=O)c2ccccc2)CC1 assayed_target="KDM4A (Homo sapiens, UniProt O75164)" recorded_value="6.00 to 7.00"
chemical_structure=Cn1cc(Nc2cnccc2C(=O)O)c(-c2ccccc2)n1 assayed_target="KDM4A (Homo sapiens, UniProt O75164)" recorded_value="5.00 to 6.00"
chemical_structure=O=C(O)c1ccncc1Nc1nn(C2CCOCC2)cc1-c1ccccc1 assayed_target="KDM4A (Homo sapiens, UniProt O75164)" recorded_value="5.00 to 6.00"
chemical_structure=Cn1nc(-c2cccc(Cl)c2)cc1Nc1cnccc1C(=O)O assayed_target="KDM4A (Homo sapiens, UniProt O75164)" recorded_value="6.00 to 7.00"
chemical_structure=O=C(O)c1ccncc1Nc1c(-c2ccccc2)cnn1-c1ccccc1 assayed_target="KDM4A (Homo sapiens, UniProt O75164)" recorded_value="4.00 to 5.00"
chemical_structure=NCCn1nc(-c2ccccc2)cc1Nc1cnccc1C(=O)O assayed_target="KDM4A (Homo sapiens, UniProt O75164)" recorded_value="5.00 to 6.00"
chemical_structure=Cc1cc(Nc2cnccc2C(=O)O)n(-c2ccccc2)n1 assayed_target="KDM4A (Homo sapiens, UniProt O75164)" recorded_value="6.00 to 7.00"
chemical_structure=Cn1ncc(-c2ccccc2F)c1Nc1cnccc1C(=O)O assayed_target="KDM4A (Homo sapiens, UniProt O75164)" recorded_value="6.00 to 7.00"
chemical_structure=O=C(O)c1ccncc1Nc1c(-c2ccc(F)cc2)cnn1CCN1CCC(F)(F)CC1 assayed_target="KDM4A (Homo sapiens, UniProt O75164)" recorded_value="5.00 to 6.00"
chemical_structure=Cc1nn(C2CCN(C3CN(C)C3)CC2)cc1Nc1cnccc1C(=O)O assayed_target="KDM4A (Homo sapiens, UniProt O75164)" recorded_value="6.00 to 7.00"
chemical_structure=CN(C)CCn1cc(-c2ccccc2)c(Nc2cnccc2C(=O)O)n1 assayed_target="KDM4A (Homo sapiens, UniProt O75164)" recorded_value="7.00 to 9.00"
chemical_structure=Cc1c(Nc2cnccc2C(=O)O)cnn1C1CCN(C2CN(C)C2)CC1 assayed_target="KDM4A (Homo sapiens, UniProt O75164)" recorded_value="6.00 to 7.00"
chemical_structure=Cc1c(Nc2cnccc2C(=O)O)cnn1-c1ccccc1 assayed_target="KDM4A (Homo sapiens, UniProt O75164)" recorded_value="7.00 to 9.00"
chemical_structure=O=C(O)c1ccncc1Nc1nn(-c2ccccc2)cc1-c1ccncc1 assayed_target="KDM4A (Homo sapiens, UniProt O75164)" recorded_value="6.00 to 7.00"
chemical_structure=Cc1nn(C2CCN(C3CCC3)CC2)cc1Nc1cnccc1C(=O)O assayed_target="KDM4A (Homo sapiens, UniProt O75164)" recorded_value="7.00 to 9.00"
chemical_structure=Cn1ncc(-c2cccnc2)c1Nc1cnccc1C(=O)O assayed_target="KDM4A (Homo sapiens, UniProt O75164)" recorded_value="5.00 to 6.00"
chemical_structure=O=C(O)c1ccncc1Nc1nn(CCC(F)(F)F)cc1-c1ccncc1 assayed_target="KDM4A (Homo sapiens, UniProt O75164)" recorded_value="6.00 to 7.00"
chemical_structure=COc1ccc(-n2nc(C)c(Nc3cnccc3C(=O)O)c2C)cc1 assayed_target="KDM4A (Homo sapiens, UniProt O75164)" recorded_value="6.00 to 7.00"
chemical_structure=O=C(O)c1ccncc1Nc1cn(-c2ccccc2)nc1-c1ccccc1 assayed_target="KDM4A (Homo sapiens, UniProt O75164)" recorded_value="6.00 to 7.00"
chemical_structure=Cc1c(-c2ccccc2)nn(CCN2CCC(F)(F)CC2)c1Nc1cnccc1C(=O)O assayed_target="KDM4A (Homo sapiens, UniProt O75164)" recorded_value="4.00 to 5.00"
chemical_structure=Cn1cc(-c2cccc(F)c2)c(Nc2cnccc2C(=O)O)n1 assayed_target="KDM4A (Homo sapiens, UniProt O75164)" recorded_value="6.00 to 7.00"
chemical_structure=Cc1c(Nc2cnccc2C(=O)O)cnn1Cc1ccccc1 assayed_target="KDM4A (Homo sapiens, UniProt O75164)" recorded_value="7.00 to 9.00"
chemical_structure=Cn1cc(-c2ccccc2)c(Nc2cnccc2C(=O)O)n1 assayed_target="KDM4A (Homo sapiens, UniProt O75164)" recorded_value="5.00 to 6.00"
chemical_structure=O=C(O)c1ccncc1Nc1nn(CCC(F)(F)F)cc1-c1ccccc1 assayed_target="KDM4A (Homo sapiens, UniProt O75164)" recorded_value="6.00 to 7.00"
